These measurements were taken from patent US8299048B2.

# tested.target: human GR (Homo sapiens)
# method.description: Trans-Activation Modulation of Glucocorticoid Receptor (GRAMMER), MMTV-LUC reporter, agonist mode
# Assay type: cell-based
# Set-up: endogenous in cells
# test.parameters: A549, A549 cells; maximum activity; read-out: Transactivation A549 Cells GRAMMER Emax
# Emax values compiled below
# value in %; strip the unit string

C[C@H](O)CN(C[C@H]1CCC2=Cc3c(cnn3-c3ccc(F)cc3)C[C@@]21C)S(=O)(=O)c1ccc(F)c(Cl)c1 :: 33.4
C[C@]12Cc3cnn(-c4ccc(F)cc4)c3C=C1CC[C@@H]2CN(CC1CC1)S(=O)(=O)c1ccccc1C(F)(F)F :: 16.9
Cn1cc(S(=O)(=O)N(CCc2ccccc2F)C[C@H]2CCC3=Cc4c(cnn4-c4ccc(F)cc4)C[C@@]32C)c(C(F)(F)F)n1 :: 76.7
COc1ccccc1CCN(C[C@H]1CCC2=Cc3c(cnn3-c3ccc(F)cc3)C[C@@]21C)S(=O)(=O)c1ccccc1F :: 33.5
C[C@]12Cc3cnn(-c4ccc(F)cc4)c3C=C1CC[C@@H]2CN(CCc1ccccc1F)S(=O)(=O)c1ccccc1C(F)(F)F :: 62.1
CC(C)(O)CN(C[C@H]1CCC2=Cc3c(cnn3-c3ccc(F)cc3)C[C@@]21C)S(=O)(=O)c1ccccc1F :: 58.6

Here is another compound to look at.
Missing value: Emax, human GR (Homo sapiens), entry C[C@H](O)CN(C[C@H]1CCC2=Cc3c(cnn3-c3ccc(F)cc3)C[C@@]21C)S(=O)(=O)Cc1ccccc1C(N)=O . Fill in?
19.9

====

# tested.target: human GR (Homo sapiens, UniProt P04150)
# Sequence (P04150 1-777): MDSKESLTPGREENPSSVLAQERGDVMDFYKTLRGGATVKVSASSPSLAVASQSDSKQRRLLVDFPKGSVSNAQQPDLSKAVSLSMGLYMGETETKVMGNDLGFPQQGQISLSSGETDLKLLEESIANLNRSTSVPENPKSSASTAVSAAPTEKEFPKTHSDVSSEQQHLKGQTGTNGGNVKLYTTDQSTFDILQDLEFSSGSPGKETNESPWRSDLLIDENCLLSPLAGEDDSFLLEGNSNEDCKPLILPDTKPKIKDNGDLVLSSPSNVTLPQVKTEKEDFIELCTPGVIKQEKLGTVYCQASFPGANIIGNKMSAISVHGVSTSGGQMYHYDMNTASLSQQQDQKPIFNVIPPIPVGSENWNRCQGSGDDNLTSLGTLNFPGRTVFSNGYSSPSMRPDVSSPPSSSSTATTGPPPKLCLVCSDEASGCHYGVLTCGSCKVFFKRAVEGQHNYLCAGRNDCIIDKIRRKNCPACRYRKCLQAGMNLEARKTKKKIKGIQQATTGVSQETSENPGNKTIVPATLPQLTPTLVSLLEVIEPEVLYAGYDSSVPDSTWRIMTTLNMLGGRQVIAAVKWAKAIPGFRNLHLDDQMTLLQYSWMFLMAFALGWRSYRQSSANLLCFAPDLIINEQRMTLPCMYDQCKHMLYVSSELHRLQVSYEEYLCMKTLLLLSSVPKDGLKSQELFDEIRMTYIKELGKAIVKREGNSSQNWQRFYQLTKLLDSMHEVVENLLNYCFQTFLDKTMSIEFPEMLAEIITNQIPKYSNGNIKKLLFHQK
# method.description: Trans-Activation Modulation of Glucocorticoid Receptor (GRAMMER), MMTV-LUC reporter, agonist mode
# Format: cell-based
# Parameters: endogenous in cells
# test.parameters: A549, A549 cells; maximum activity; read-out: Transactivation A549 Cells GRAMMER Emax
# Text: This assay assesses the ability of test compounds to control transcription from the MMTV-LUC reporter gene in lung adenocarcinoma A549 cells or MDA-MB-453 cells, a human breast cancer cell line that naturally expresses the human GR. […] The routine transient assay consists of plating 7,000-25,000 cells/well of a white, clear-bottom 96-well plate. […] The cells are trypsinized and counted to the right cell number in the proper amount of fresh media. […]
value.kind: Emax (%)
# value in %; strip the unit string

C[C@]12Cc3cnn(-c4ccc(F)cc4)c3C=C1CC[C@@H]2CN(CC(O)c1ccccn1)S(=O)(=O)CC(F)(F)F (stereo partly shown) :: 78.1

Report Emax for COCCN(C[C@H]1CCC2=Cc3c(cnn3-c3ccc(F)cc3)C[C@@]21C)S(=O)(=O)c1ccccc1F please.
43.9

Report Emax for C[C@]12Cc3cnn(-c4ccc(F)cc4)c3C=C1CC[C@@H]2CN(CCO)S(=O)(=O)c1ccc(Oc2cccc(Cl)c2C#N)cc1 please.
12.6

Report Emax for C[C@]12Cc3cnn(-c4ccc(F)cc4)c3C=C1CC[C@@H]2CN(CC1CC1)S(=O)(=O)Cc1ccccc1 please.
33.5

====

# tested.target: human GR (Homo sapiens, UniProt P04150)
# method.description: Trans-Activation Modulation of Glucocorticoid Receptor (GRAMMER), MMTV-LUC reporter, agonist mode
# Type: cell-based
# Design: endogenous in cells
# test.parameters: A549, A549 cells; maximum activity; read-out: Transactivation A549 Cells GRAMMER Emax
value.kind: Emax
Give the value; after it, write the unit.

Report Emax for C[C@]12Cc3cnn(-c4ccc(F)cc4)c3C=C1CC[C@@H]2CN(CC#N)S(=O)(=O)c1ccc(Oc2ccccn2)cc1 [Example 45] please.
11.4%

Report Emax for Cc1noc(C)c1S(=O)(=O)N(CCc1ccccc1O)C[C@H]1CCC2=Cc3c(cnn3-c3ccc(F)cc3)C[C@@]21C [Example 123] please.
65.4%

Report Emax for C[C@]12Cc3cnn(-c4ccc(F)cc4)c3C=C1CC[C@@H]2CN(CCO)S(=O)(=O)c1cc(Cl)c(Cl)s1 [Example 58] please.
3.1%

Report Emax for C[C@@H](O)CN(C[C@H]1CCC2=Cc3c(cnn3-c3ccc(F)cc3)C[C@@]21C)S(=O)(=O)c1ccc(F)c(Cl)c1 [Example 115] please.
26.1%

Report Emax for Cc1oncc1S(=O)(=O)N(CCO)C[C@H]1CCC2=Cc3c(cnn3-c3ccc(F)cc3)C[C@@]21C [Example 56] please.
50.9%

Report Emax for C[C@]12Cc3cnn(-c4ccc(F)cc4)c3C=C1CC[C@@H]2CN(CCc1ccccc1CO)S(=O)(=O)CC(F)(F)F [Example 163] please.
48.4%

Report Emax for C[C@]12Cc3cnn(-c4ccc(F)cc4)c3C=C1CC[C@@H]2CN(CCO)S(=O)(=O)c1ccccc1C(N)=O [Example 117] please.
45.1%

====

# pEC50 values compiled below
# tested.target: human GR (Homo sapiens, UniProt P04150)
# Sequence (P04150 1-777): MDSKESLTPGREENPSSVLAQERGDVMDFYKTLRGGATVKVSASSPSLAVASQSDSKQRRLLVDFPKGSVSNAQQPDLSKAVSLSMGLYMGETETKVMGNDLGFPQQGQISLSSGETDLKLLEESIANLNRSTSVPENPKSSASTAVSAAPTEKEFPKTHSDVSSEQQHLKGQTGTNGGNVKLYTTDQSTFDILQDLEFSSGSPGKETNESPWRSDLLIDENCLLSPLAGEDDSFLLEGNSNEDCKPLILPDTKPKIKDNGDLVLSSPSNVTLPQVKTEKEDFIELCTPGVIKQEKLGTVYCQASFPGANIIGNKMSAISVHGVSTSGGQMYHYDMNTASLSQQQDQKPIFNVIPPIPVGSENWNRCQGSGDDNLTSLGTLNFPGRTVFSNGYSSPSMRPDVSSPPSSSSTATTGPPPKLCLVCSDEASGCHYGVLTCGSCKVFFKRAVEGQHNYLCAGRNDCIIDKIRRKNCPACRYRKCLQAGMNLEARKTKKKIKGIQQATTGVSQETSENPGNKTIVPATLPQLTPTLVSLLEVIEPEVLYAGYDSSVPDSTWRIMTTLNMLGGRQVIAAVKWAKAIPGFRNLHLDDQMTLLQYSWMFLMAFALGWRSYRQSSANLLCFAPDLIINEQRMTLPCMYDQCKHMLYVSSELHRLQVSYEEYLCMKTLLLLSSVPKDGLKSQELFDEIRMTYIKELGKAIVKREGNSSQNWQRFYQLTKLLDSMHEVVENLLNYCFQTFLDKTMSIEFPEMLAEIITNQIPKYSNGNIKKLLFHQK
# method.description: Trans-Activation Modulation of Glucocorticoid Receptor (GRAMMER), MMTV-LUC reporter, agonist mode
# Type: cell-based
# Parameters: endogenous in cells
# test.parameters: A549 cells; inflection point; read-out: Transactivation A549 Cells GRAMMER IP
Please keep in mind that pEC50 is minus log10 of the molar concentration; only the number is needed.

# example entries with known answers
Cc1noc(C)c1S(=O)(=O)N(CCCc1ccccc1)C[C@H]1CCC2=Cc3c(cnn3-c3ccc(F)cc3)C[C@@]21C [Example 194] :: 6.29
Cc1noc(C)c1S(=O)(=O)N(CCO)C[C@H]1CCC2=Cc3c(cnn3-c3ccc(F)cc3)C[C@@]21C [Example 71] :: 6.59
C[C@]12Cc3cnn(-c4ccc(F)cc4)c3C=C1CC[C@@H]2CN(CC#N)S(=O)(=O)c1ccc(C#N)cc1 [Example 28] :: 6.32
C[C@]12Cc3cnn(-c4ccc(F)cc4)c3C=C1CC[C@@H]2CN(CCc1ccccc1F)S(=O)(=O)Cc1ccc(Cl)cc1Cl [Example 105] :: 6.72
C[C@]12Cc3cnn(-c4ccc(F)cc4)c3C=C1CC[C@@H]2CN(CCO)S(=O)(=O)c1ccc(F)cc1F [Example 82] :: 6.54

Missing value: pEC50, human GR (Homo sapiens, UniProt P04150), entry C[C@]12Cc3cnn(-c4ccc(F)cc4)c3C=C1CC[C@@H]2CN(CCc1ccccc1F)S(=O)(=O)Cc1cccc(C(F)(F)F)c1 [Example 88] . Fill in?
6.21

Missing value: pEC50, human GR (Homo sapiens, UniProt P04150), entry C[C@]12Cc3cnn(-c4ccc(F)cc4)c3C=C1CC[C@@H]2CN(CCO)S(=O)(=O)c1ccccc1C(N)=O [Example 117] . Fill in?
6.35

Missing value: pEC50, human GR (Homo sapiens, UniProt P04150), entry C=CCN(C[C@H]1CCC2=Cc3c(cnn3-c3ccc(F)cc3)C[C@@]21C)S(=O)(=O)c1ccccc1F [Example 3] . Fill in?
6.43

Missing value: pEC50, human GR (Homo sapiens, UniProt P04150), entry C[C@]12Cc3cnn(-c4ccc(F)cc4)c3C=C1CC[C@@H]2CN(CC#N)S(=O)(=O)c1ccc(F)cc1 [Example 46] . Fill in?
6.43

Missing value: pEC50, human GR (Homo sapiens, UniProt P04150), entry C[C@]12Cc3cnn(-c4ccc(F)cc4)c3C=C1CC[C@@H]2CN(CC#N)S(=O)(=O)c1ccc(F)cc1F [Example 51] . Fill in?
6.36

Missing value: pEC50, human GR (Homo sapiens, UniProt P04150), entry Cc1ccccc1S(=O)(=O)N(CC#N)C[C@H]1CCC2=Cc3c(cnn3-c3ccc(F)cc3)C[C@@]21C [Example 49] . Fill in?
6.02
